For each record, write down the corresponding IC50.
Target: human TLR7 (Homo sapiens, UniProt Q9NYK1)
Test: HEK-Blue hTLR7 SEAP reporter gene inhibition assay
Format: cell-based
Conditions: hTLR7 HEK-Blue cells, TLR7 ligand Gardiquimod 10 µM, 20 hours, SEAP by Quanti-blue; class symbols; read-out: HEK-Blue hTLR7 IC50
Method: HEK-Blue cells with stable expression of human TLR7 or TLR8 were used in the evaluation of inhibitory activity of compounds in the present invention against TLR7 or TLR8, by using its ability to induce the SEAP reporting gene under the control of the fusion of IFN-β minimum promoters into five NF-κB and ap-1 binding sites, as follows: hTLR7 HEK-Blue cells (Invivogen, 80, 000 cells per well) or hTLR8 HEK-Blue cells (60, 000 cells per well) were added to a 96-well cell culture plate. […]

Below, 5 compounds whose answers are already recorded.
* C[C@@H]1CN(c2ccc(C#N)n3ncc(F)c23)Cc2c3c(nn21)CC(N)CC3 (single isomer, unassigned) [Example I-20b] | < 0.05 µM
* C[C@@H]1CN(c2ccc(C#N)n3ncc(F)c23)Cc2c3c(nn21)CN(CC(=O)N1CCC(F)(F)C1)[C@@H](C)C3 [Example I-152] | < 0.05 µM
* C[C@@H]1CN(c2ccc(C#N)n3ncc(F)c23)Cc2c3c(nn21)CCC(C)(N)C3 (single isomer, unassigned) [Example I-80b] | > 0.05 µM
* C[C@@H]1CN(c2ccc(C#N)n3ncc(F)c23)Cc2c3c(nn21)CN[C@@H](C)C3 [Example I-30a] | < 0.05 µM
* CC(C)C1Cc2c(nn3c2CN(c2ccc(C#N)n4ncc(F)c24)C[C@H]3C)CN1 (stereo partly shown) [Example I-60] | < 0.05 µM

// each listed compound needs a value for IC50
1. C[C@@H]1CN(c2ccc(C#N)n3ncc(F)c23)Cc2c3c(nn21)CN(Cc1cn[nH]c1)CC3 [Example I-28]
2. C[C@@H]1CN(c2ccc(C#N)n3ncc(F)c23)Cc2c3c(nn21)CC(N1CCC(O)C1)CC3 (stereo partly shown) [Example I-34]
3. C[C@@H]1CN(c2ccc(C#N)n3ncc(F)c23)Cc2c3c(nn21)CNC(Cc1ccn[nH]1)C3 (stereo partly shown) [Example I-79]
4. CC1Cc2c(nn3c2CN(c2ccc(C#N)n4ncc(F)c24)C[C@H]3C)C(C)N1 (single isomer, unassigned) [Example I-59b]
5. C[C@@H]1CN(c2ccc(C#N)n3ncc(F)c23)Cc2c3c(nn21)CNC(c1ccn[nH]1)C3 (stereo partly shown) [Example I-68]
6. C[C@@H]1CN(c2ccc(C#N)n3ncc(F)c23)Cc2c3c(nn21)CCC(N)C3 (stereo partly shown) [Example I-9]
7. C[C@@H]1CN(c2ccc(C#N)n3ncc(F)c23)Cc2c3c(nn21)CN(C1CCOC1)[C@@H](C)C3 (stereo partly shown) [Example I-142]

["> 0.05 µM", "< 0.05 µM", "< 0.05 µM", "< 0.05 µM", "> 0.05 µM", "> 0.05 µM", "< 0.05 µM"]

// each listed compound needs a value for IC50
1. C[C@@H]1CN(c2ccc(C#N)n3ncc(F)c23)Cc2c3c(nn21)CCC(C)(N)C3 (single isomer, unassigned) [Example I-80a]
2. CC1Cc2c(nn3c2CN(c2ccc(C#N)n4ncc(F)c24)C[C@H]3C)C(C)N1 (single isomer, unassigned) [Example I-88b]
3. C[C@H]1CN(c2ccc(C#N)n3ncc(F)c23)Cc2c3c(nn21)CNCC3 [Example I-76]
4. C[C@@H]1CN(c2ccc(C#N)n3ncc(F)c23)Cc2c3c(nn21)CN(CC(=O)N1CCN(C2CC2)CC1)[C@@H](C)C3 [Example I-136]
5. C[C@@H]1CN(c2ccc(C#N)n3ncc(F)c23)Cc2c3c(nn21)CN([C@H]1CCNC1=O)[C@@H](C)C3 [Example I-157]
6. C[C@@H]1CN(c2ccc(C#N)n3ncc(F)c23)Cc2c3c(nn21)C(C)(C)NCC3 [Example I-45]

> 0.05 µM
< 0.05 µM
> 0.05 µM
< 0.05 µM
> 0.05 µM
< 0.05 µM

// each listed compound needs a value for IC50
1. C[C@@H]1CN(c2ccc(C#N)n3ncc(F)c23)Cc2c3c(nn21)CN([C@@H]1CCNC1=O)[C@@H](C)C3 [Example I-155]
2. COC[C@@H]1Cc2c(nn3c2CN(c2ccc(C#N)n4ncc(F)c24)C[C@H]3C)CN1 [Example I-85]
3. C[C@@H]1CN(c2ccc(C#N)n3ncc(F)c23)Cc2c3c(nn21)CN(CC(=O)N[C@H]1CNC[C@H]1F)[C@@H](C)C3 [Example I-106]
4. C[C@@H]1CN(c2ccc(C#N)n3ncc(F)c23)Cc2c3c(nn21)CN(CC(=O)N(C)C)[C@@H](C)C3 [Example I-102]
5. C[C@@H]1CN(c2ccc(C#N)n3ncc(F)c23)Cc2c3c(nn21)CCC(C)(N)C3 (stereo partly shown) [Example I-80]
6. C[C@@H]1CN(c2ccc(C#N)n3ncc(F)c23)Cc2c3c(nn21)CC(C)(N)CC3 (single isomer, unassigned) [Example I-71b]
7. C[C@@H]1CN(c2ccc(C#N)n3ncc(F)c23)Cc2c3c(nn21)CN(CC(C)(C)O)[C@@H](C)C3 [Example I-117]

1. < 0.05 µM
2. > 0.05 µM
3. < 0.05 µM
4. < 0.05 µM
5. > 0.05 µM
6. > 0.05 µM
7. < 0.05 µM

----------
Target: human TLR7 (Homo sapiens)
Sequence (Q9NYK1 27-1049): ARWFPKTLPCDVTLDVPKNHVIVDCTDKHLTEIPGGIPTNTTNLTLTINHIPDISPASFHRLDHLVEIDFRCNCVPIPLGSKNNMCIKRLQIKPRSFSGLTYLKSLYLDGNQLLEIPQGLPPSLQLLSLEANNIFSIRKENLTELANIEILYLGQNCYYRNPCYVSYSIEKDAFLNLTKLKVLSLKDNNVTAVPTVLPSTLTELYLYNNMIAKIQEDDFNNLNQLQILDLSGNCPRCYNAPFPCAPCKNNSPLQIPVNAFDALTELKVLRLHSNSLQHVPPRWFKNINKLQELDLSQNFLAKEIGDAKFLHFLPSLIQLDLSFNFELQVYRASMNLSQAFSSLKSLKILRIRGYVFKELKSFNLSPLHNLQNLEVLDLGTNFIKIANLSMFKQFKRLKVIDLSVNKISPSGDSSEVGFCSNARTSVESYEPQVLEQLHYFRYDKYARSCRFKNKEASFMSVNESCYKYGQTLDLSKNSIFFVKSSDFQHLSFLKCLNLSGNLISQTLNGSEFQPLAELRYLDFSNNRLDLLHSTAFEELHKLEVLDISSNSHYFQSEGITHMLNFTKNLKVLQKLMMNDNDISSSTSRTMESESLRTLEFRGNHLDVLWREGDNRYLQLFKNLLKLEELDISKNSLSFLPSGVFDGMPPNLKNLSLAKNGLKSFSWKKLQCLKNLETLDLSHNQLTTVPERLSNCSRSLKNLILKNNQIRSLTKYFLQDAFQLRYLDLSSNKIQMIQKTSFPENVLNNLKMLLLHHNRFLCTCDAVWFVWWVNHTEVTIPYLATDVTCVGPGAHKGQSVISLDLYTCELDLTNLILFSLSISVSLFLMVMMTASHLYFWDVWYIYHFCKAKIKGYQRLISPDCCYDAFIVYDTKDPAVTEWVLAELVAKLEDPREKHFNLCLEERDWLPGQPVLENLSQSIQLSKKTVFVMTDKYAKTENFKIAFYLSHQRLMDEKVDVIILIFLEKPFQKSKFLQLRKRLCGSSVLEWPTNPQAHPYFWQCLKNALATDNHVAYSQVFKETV
Test: HEK-Blue hTLR7 SEAP reporter gene inhibition assay
Assay type: cell-based
Conditions: hTLR7 HEK-Blue cells, TLR7 ligand Gardiquimod 10 µM, 20 hours, SEAP by Quanti-blue; class symbols; read-out: HEK-Blue hTLR7 IC50
For each record, write down the corresponding IC50.

* CNC(=O)CN1Cc2nn3c(c2C[C@@H]1C)CN(c1ccc(C#N)n2ncc(F)c12)C[C@H]3C | > 50 nM
* C[C@@H]1CN(c2ccc(C#N)n3ncc(F)c23)Cc2c3c(nn21)CN(C[C@@](C)(O)CO)[C@@H](C)C3 | < 50 nM
* CC(C(N)=O)N1Cc2nn3c(c2C[C@@H]1C)CN(c1ccc(C#N)n2ncc(F)c12)C[C@H]3C (stereo partly shown) | > 50 nM
* C[C@@H]1CN(c2ccc(C#N)n3ncc(F)c23)Cc2c3c(nn21)CNCC3 | < 50 nM
* C[C@@H]1CN(c2ccc(C#N)n3ncc(F)c23)Cc2c3c(nn21)CN(CC(N)=O)[C@@H](C)C3 | < 50 nM
* C[C@@H]1CN(c2ccc(C#N)n3ncc(F)c23)Cc2c3c(nn21)CN(C[C@@H](O)CO)[C@@H](C)C3 | < 50 nM

So what does the record say about IC50 for C[C@@H]1CN(c2ccc(C#N)n3ncc(F)c23)Cc2c3c(nn21)C[C@](C)(N1CCC(O)C1)CC3 (stereo partly shown) ?
< 50 nM
